Answer each item with its documented Ratio.
assay: Antioxidant activity assessed as H2O2-induced hydroxyl radical scavenging activity by ESR spin trapping method relative to CYPMPO; assay type: functional
Answers are plain numbers.

{"columns": ["Compound", "Ratio"],
 "data": [
  ["CC1=NN(c2ccccc2)C(=O)C1", 28.7],
  ["Cc1c(C)c2c(c(C)c1O)CCC(C)(C(=O)O)O2 (centres undefined)", 23.8],
  ["Oc1nc(O)c2nc(O)[nH]c2n1", 0.894]
]}

Would you mind telling me what Ratio value was observed for N[C@@H](CCC(=O)N[C@@H](CS)C(=O)NCC(=O)O)C(=O)O ? 1.59

###

experiment: Antioxidant activity assessed as riboflavin/EDTA-induced superoxide anion radical scavenging activity by ESR spin trapping method relative to CYPMPO; type: functional
Exercise: for every item that follows, state its recorded Ratio.
Give bare numbers.

{"columns": ["Compound", "Value Measured"],
 "data": [
  ["Oc1nc(O)c2nc(O)[nH]c2n1", 222],
  ["CC1=NN(c2ccccc2)C(=O)C1", 61.1],
  ["Cc1c(C)c2c(c(C)c1O)CCC(C)(C(=O)O)O2 (centres undefined)", 43.8]
]}

We next turn to a different compound, shown below.
What value of Ratio has been reported for the following compound? N[C@@H](CCC(=O)N[C@@H](CS)C(=O)NCC(=O)O)C(=O)O 23.3
